system: Trypanosoma brucei rhodesiense; test: Antiparasitic activity against Trypanosoma brucei rhodesiense STIB900 assessed as growth inhibition after 48 hrs by Alamar blue assay; format: functional; conditions: STIB900, 48 h
recorded-endpoint: EC50 (nM)
Respond with the bare value in nM.

Input line: May I ask what EC50 has been recorded for CC(C)c1ccc(COc2ccc(N(CCN)C(=O)c3cccnc3C(F)(F)F)cc2)cc1.Cl ?
Output line: 2

Input line: Given the molecule Cl.NCCN(C(=O)c1ccc(Cl)cc1Cl)c1ccc(OCc2ccc(Cl)cc2)cc1 , what is its reported EC50?
Output line: 5

---

system: L6; assay: Cytotoxicity against rat L6 cells assessed as growth inhibition after 48 hrs by Alamar blue assay; format: cell-based; settings: l6, 48 h
I'd be grateful if you could share measured CC50 for these entries.
Give your result in µM as a bare value.

Input line: Using the record for NCCN(C(=O)c1ccc(Cl)cc1Cl)c1ccc(C(F)(F)F)cc1 , report its CC50.
Output line: 13.2

Input line: // returns reported CC50 for input COc1ccc(N(CCN)C(=O)c2ccc(Cl)cc2Cl)cc1
Output line: 56.1

Input line: # get_value(readout='CC50', item= NCCN(C(=O)c1ccccc1F)c1ccc(Cl)cc1 )
Output line: 104
